What pKi was measured for each of the following?
Molecular target: T1, Vascular endothelial growth factor (VEGF165), P15692
T1 chain: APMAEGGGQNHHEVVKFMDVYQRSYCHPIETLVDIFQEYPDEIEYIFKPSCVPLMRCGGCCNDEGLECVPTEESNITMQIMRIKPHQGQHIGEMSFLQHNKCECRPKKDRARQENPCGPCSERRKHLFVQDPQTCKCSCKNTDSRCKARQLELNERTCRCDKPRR
Test: competition FP, tracer BODIPY-v114*ΔNT
pKi: −log10 of the molar value.

Report measured pKi; entry is VDNKFNKEMHNAYAIEIALLPNLNDQQFHAFIWSLIDD (modifications not checked) [Z-VEGF (1-38)]
< 4.00

Report measured pKi; entry is VDNKFNKEQHNARAIEAALDPNLNDQQFHAKIWSIIDD (modifications not checked) [α-VEGF-1]
< 4.00
